- target-desc: TnsD wt (Escherichia coli (transposon Tn7)) (UniProt P13991)
- Sequence: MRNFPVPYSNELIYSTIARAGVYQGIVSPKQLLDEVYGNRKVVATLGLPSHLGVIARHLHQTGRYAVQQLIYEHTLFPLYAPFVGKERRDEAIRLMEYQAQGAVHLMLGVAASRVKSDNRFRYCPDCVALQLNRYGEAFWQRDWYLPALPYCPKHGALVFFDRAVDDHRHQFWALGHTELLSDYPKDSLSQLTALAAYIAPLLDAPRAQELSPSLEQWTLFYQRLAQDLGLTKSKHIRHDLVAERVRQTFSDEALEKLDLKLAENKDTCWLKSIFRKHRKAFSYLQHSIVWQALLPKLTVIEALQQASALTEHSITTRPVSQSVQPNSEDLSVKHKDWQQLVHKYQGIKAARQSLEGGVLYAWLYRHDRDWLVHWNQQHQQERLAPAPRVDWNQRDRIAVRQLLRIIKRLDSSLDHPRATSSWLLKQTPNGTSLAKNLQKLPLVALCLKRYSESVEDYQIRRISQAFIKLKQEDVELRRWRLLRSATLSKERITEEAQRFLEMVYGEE
- assay-protocol: EMSA
- recorded-conditions: Gel-shift buffer not given (as described in ref. 6); TnsD stored in 500 mM KCl, 50 mM Tris-HCl pH 8.0, 1 mM EDTA, 2 mM DTT, 25% glycerol
# key: entry, value: binding signal (relative to wt site)

Consider the reported binding signal (relative to wt site) for these sequences:
residue-string	target-desc	measured
CCGCGTAACCTGGAAAAATCGGTTACGGTTGAGTAA (double strand) [attTn7 +45 mutant]	TnsD wt (Escherichia coli (transposon Tn7)) (UniProt P13991)	< 0.2
CCGCGTAACCGGGCAAAATCGGTTACGGTTGAGTAA (double strand) [attTn7 +48 mutant]	TnsD wt (Escherichia coli (transposon Tn7)) (UniProt P13991)	0.5
CCGCGTACCCTGGCAAAATCGGTTACGGTTGAGTAA (double strand) [attTn7 +51 mutant]	TnsD wt (Escherichia coli (transposon Tn7)) (UniProt P13991)	< 0.2
CCGCGTCACCTGGCAAAATCGGTTACGGTTGAGTAA (double strand) [attTn7 +52 mutant]	TnsD wt (Escherichia coli (transposon Tn7)) (UniProt P13991)	0.5
CCGCGTAACCTGGCAAAATCGGTTAAGGTTGAGTAA (double strand) [attTn7 +33 mutant]	TnsD wt (Escherichia coli (transposon Tn7)) (UniProt P13991)	< 0.2

[Q] Return reported binding signal (relative to wt site); argument: CCGCTTAACCTGGCAAAATCGGTTACGGTTGAGTAA (double strand) [attTn7 +54 mutant]
[A] < 0.2

[Q] Which binding signal (relative to wt site) value belongs to CCGCGTAACCTGGCAACATCGGTTACGGTTGAGTAA (double strand) [attTn7 +42 mutant] ?
[A] < 0.2

[Q] I'd like to know its binding signal (relative to wt site). The sequence in question is CCGCGTAACCTGGCACAATCGGTTACGGTTGAGTAA (double strand) [attTn7 +43 mutant]
[A] < 0.2

[Q] Reported binding signal (relative to wt site) for CCGCGTAACCTGGCAAAATCGGTTACGGGTGAGTAA (double strand) [attTn7 +30 mutant] : what is it?
[A] 0.5

[Q] Entry CCGCGTAACCTGGCAAAATCGTTTACGGTTGAGTAA (double strand) [attTn7 +37 mutant] has what binding signal (relative to wt site)?
[A] 0.5

[Q] What value of binding signal (relative to wt site) has been reported for the following sequence? CCGCGTAACCTGGCAAAATCGGTTACGTTTGAGTAA (double strand) [attTn7 +31 mutant]
[A] < 0.2
